All values here come from PubChem BioAssay AID588689.

Target Of Assay: Genome polyprotein (Dengue virus type 2 (strain 16681-PDK53)) (UniProt P29991)
Protocol Summary: flavivirus cap methylation enzyme inhibition – biochemical, confirmation dose response, primary screen (AID 588689)
Recorded Conditions: Dengue-2 NS5 methyltransferase capping enzyme assay, at 25 µM, hits give high values
About 1,000 (0.29%) of roughly 340,000 compounds were called active. The list is a sample of the results. Measured potencies and affinities stand elsewhere.
Observation Type: inhibition (%)
Field format: number, assumed %, no unit text.

Compound: CCCCOc1ccc(N2C(=O)CC(N(O)c3ccccc3)C2=O)cc1 (configuration not stated)
Target Of Assay: Genome polyprotein (Dengue virus type 2 (strain 16681-PDK53)) (UniProt P29991)
Unit Annotation: %
Recorded Result: -3.24
//
Compound: CC(=O)c1cc2c(cc1NC(=O)Cc1ccsc1)OCO2
Target Of Assay: Genome polyprotein (Dengue virus type 2 (strain 16681-PDK53)) (UniProt P29991)
Unit Annotation: %
Recorded Result: -0.37
//
Compound: Cc1cc(N2C(=O)C(O)=C(C(=O)c3ccco3)C2c2cccc(Cl)c2)no1 (configuration not stated)
Target Of Assay: Genome polyprotein (Dengue virus type 2 (strain 16681-PDK53)) (UniProt P29991)
Unit Annotation: %
Recorded Result: -4.65
//
Compound: CCOC(=O)c1c(/N=C/c2cc(OC)cc([N+](=O)[O-])c2O)sc(C)c1C
Target Of Assay: Genome polyprotein (Dengue virus type 2 (strain 16681-PDK53)) (UniProt P29991)
Unit Annotation: %
Recorded Result: -0.36
//
Compound: CCN(CC)c1ccc(S(=O)(=O)N2CCOCC2)cc1NC(=O)CSC(=S)N1CCCC1
Target Of Assay: Genome polyprotein (Dengue virus type 2 (strain 16681-PDK53)) (UniProt P29991)
Unit Annotation: %
Recorded Result: -4.86

Give its inhibition value. Item: O=C(CSc1ccc(F)cc1)Nc1ccc(N2CCOCC2)c(Cl)c1
-4.54

Give its inhibition value. Item: C=CSc1sc(Cl)c(N2CCOCC2)c1[N+](=O)[O-]
0

Give its inhibition value. Item: COc1ccccc1N1CCN(C2CC(=O)N(c3ccc(F)cc3)C2=O)CC1 (configuration not stated)
10.3

Give its inhibition value. Item: Cn1ccnc1C1CCCCN1C(=O)c1cc(COc2ccc(F)cc2F)on1 (configuration not stated)
1.47

Give its inhibition value. Item: COc1ccc(NS(=O)(=O)c2ccc3c(c2)N(C(C)=O)CCS3)cc1
-7.87

Give its inhibition value. Item: COc1cc(/C=C2\SC(=S)N(CCC(=O)Nc3ccccc3)C2=O)cc(OC)c1OC
0

Give its inhibition value. Item: CCOc1ccc(C2C(C(=O)c3ccc(C)o3)=C(O)C(=O)N2c2cc(C)on2)cc1OC (configuration not stated)
4.09

Give its inhibition value. Item: O=C(O)c1cc(N=Nc2c(O)ccc3ccccc23)cc(C(=O)O)c1
20.4

Give its inhibition value. Item: O=C(Cn1ncc2c([nH]c3ccccc32)c1=O)NCCCN1CCN(c2ccccc2)CC1
0

Give its inhibition value. Item: CCOc1ccccc1C=C1SC(=S)N(CC)C1=O
6.98

Give its inhibition value. Item: COC(=O)c1ccc(C2C(C(=O)c3ccc(C)o3)=C(O)C(=O)N2c2cc(C)on2)cc1 (configuration not stated)
-3.53

Give its inhibition value. Item: CN1CCc2nc(SC(C(=O)O)c3ccccc3)c(C#N)c(-c3cccs3)c2C1 (configuration not stated)
23.2
